measured-target: Porcine ventricle myofibrils (ventricular myosin ATPase) (Sus scrofa)
Construct: Myofibrils from porcine cardiac muscle was isolated from the left ventricle of Yucatan minipigs; tissue Exemplar Genetics; host or cells: left ventricle of Yucatan minipigs, myofibrils prepared in house
Sequence (P79293 whole entry): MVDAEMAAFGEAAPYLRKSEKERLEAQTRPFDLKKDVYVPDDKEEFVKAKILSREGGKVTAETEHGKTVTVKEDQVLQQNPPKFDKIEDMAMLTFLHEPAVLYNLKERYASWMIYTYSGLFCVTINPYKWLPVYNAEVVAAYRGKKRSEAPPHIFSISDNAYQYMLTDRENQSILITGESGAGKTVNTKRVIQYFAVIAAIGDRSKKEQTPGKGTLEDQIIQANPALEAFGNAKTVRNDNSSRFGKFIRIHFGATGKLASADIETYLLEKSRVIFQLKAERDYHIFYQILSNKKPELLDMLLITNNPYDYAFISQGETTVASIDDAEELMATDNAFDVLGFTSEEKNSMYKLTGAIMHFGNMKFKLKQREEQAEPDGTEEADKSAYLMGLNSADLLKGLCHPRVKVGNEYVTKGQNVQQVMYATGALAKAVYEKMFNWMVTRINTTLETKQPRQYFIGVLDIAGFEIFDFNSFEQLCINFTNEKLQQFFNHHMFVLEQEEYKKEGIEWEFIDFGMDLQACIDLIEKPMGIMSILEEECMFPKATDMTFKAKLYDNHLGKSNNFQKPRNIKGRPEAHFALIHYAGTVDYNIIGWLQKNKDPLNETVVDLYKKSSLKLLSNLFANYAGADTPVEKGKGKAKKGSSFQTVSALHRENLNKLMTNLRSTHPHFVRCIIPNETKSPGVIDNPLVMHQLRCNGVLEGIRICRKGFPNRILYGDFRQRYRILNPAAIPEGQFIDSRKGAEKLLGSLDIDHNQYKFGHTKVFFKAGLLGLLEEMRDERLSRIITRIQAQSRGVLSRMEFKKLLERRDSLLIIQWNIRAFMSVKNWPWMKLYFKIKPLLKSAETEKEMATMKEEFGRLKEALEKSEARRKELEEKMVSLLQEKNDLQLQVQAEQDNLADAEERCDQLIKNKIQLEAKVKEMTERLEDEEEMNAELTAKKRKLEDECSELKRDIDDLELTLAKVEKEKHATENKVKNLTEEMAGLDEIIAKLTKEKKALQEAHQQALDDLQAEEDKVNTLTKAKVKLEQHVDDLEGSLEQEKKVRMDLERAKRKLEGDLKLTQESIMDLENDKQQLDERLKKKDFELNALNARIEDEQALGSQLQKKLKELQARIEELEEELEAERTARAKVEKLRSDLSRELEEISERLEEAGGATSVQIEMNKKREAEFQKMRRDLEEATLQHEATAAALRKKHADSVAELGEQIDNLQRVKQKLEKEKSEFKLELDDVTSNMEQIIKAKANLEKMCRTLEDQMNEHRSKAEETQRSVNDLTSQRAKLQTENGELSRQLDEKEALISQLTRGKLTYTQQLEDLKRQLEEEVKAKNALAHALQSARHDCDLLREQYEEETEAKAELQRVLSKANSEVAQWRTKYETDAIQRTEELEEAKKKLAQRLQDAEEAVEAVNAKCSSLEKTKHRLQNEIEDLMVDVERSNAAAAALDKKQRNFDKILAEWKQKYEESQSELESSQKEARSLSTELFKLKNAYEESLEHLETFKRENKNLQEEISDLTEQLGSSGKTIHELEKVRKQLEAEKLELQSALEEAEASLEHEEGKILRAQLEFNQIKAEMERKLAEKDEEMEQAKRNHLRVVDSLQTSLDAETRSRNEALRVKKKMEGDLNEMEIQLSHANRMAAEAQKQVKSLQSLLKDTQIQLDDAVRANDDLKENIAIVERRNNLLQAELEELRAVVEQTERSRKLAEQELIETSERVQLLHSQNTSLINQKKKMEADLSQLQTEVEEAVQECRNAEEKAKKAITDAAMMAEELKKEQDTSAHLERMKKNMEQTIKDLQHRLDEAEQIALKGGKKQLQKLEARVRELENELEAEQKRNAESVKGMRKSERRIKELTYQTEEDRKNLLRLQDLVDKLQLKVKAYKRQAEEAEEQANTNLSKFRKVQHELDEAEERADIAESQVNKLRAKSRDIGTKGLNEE
measurement-notes: Myofibril ATPase assay, porcine ventricle myofibrils
Format: biochemical, porcine (Yucatan minipigs)
conditions: Y75 value (no ‡ mark); porcine ventricle myofibrils
measured-endpoint: Ventricular EC25

INSERT INTO results (molecule, reading) VALUES
  ('C[C@H](NC(=O)Cc1c(C(F)(F)F)c2cc(F)ccc2[nH]c1=O)c1ccc(F)cc1F', '0.32 µM'),
  ('Cc1nc(C#N)ncc1[C@H](C)NC(=O)Cc1cc2cc(F)c(F)cc2[nH]c1=O', '1.56 µM'),
  ('C[C@@H](NC(=O)Cc1c(C2CC2)c2cc(F)ccc2[nH]c1=O)c1ccc(C#N)cn1', '100.00 µM'),
  ('Cc1c(C(F)(F)C(=O)N[C@H](C)c2cc(C#N)ccn2)c(=O)[nH]c2ccc(F)cc12 (single isomer, unassigned)', '20.79 µM'),
  ('C[C@@H](NC(=O)Cc1cc2c(C#N)cccc2[nH]c1=O)c1ncc(C#N)cn1 (single isomer, unassigned)', '5.31 µM');
